- System: carbapenem-resistant clinical strain, WC-452
- test-summary: Checkerboard assay to examine synergy with antibiotics in CAA/HuS
- Type: cell-based, P. aeruginosa
- measurement-conditions: lysin + aztreonam
Measured FICI, Aztreonam, listed per entry for reference.
Enter a number only.

{"molecule": "GN92: Modified GN4, N-terminal peptide KFFKFFKFFK with linker, SEQ ID NO: 7 (protein) KFFKFFKFFKAGAGAGAGAGAGAGAGASMRTSQRGIDLIKSFEGLRLSAYQDSVGVWTIGYGTTRGVTRYMTITVEQAERMLSNDIQRFEPELDRLAKVPLNQNQWDALMSFVYNLGAANLASSTLLKLLNKGDYQGAADQFPRWVNAGGKRLDGLVKRRAAERALFLEPLS", "FICI, Aztreonam": 0.188}
{"molecule": "GN4: Native lysin, YP_002284361.1/Lysozyme, SEQ ID NO: 3; first disclosed in WO/2017/049233 (protein, Pseudomonas phage PAJU2) MRTSQRGIDLIKSFEGLRLSAYQDSVGVWTIGYGTTRGVTRYMTITVEQAERMLSNDIQRFEPELDRLAKVPLNQNQWDALMSFVYNLGAANLASSTLLKLLNKGDYQGAADQFPRWVNAGGKRLDGLVKRRAAERALFLEPLS", "FICI, Aztreonam": 0.156}
{"molecule": "GN121: Modified GN37, C-terminal peptide RKKTRKRLKKIGKVLKWI, SEQ ID NO: 13 (protein) MTYTLSKRSLDNLKGVHPDLVAVVHRAIQLTPVDFAVIEGLRSVSRQKELVAAGASKTMNSRHLTGHAVDLAAYVNGIRWDWPLYDAIAVAVKAAAKELGVAIVWGGDWTTFKDGPHFELDRSKYRRKKTRKRLKKIGKVLKWI", "FICI, Aztreonam": 0.625}
{"molecule": "GN37: Native lysin, WP_014102102.1/VanY, SEQ ID NO: 12; first disclosed in WO/2017/049233 (protein, listed as Micavibrio aeruginosavorus) MTYTLSKRSLDNLKGVHPDLVAVVHRAIQLTPVDFAVIEGLRSVSRQKELVAAGASKTMNSRHLTGHAVDLAAYVNGIRWDWPLYDAIAVAVKAAAKELGVAIVWGGDWTTFKDGPHFELDRSKYR", "FICI, Aztreonam": 0.531}
{"molecule": "GN150: Native lysin, WP_034684053.1/VanY, SEQ ID NO: 19 (protein, listed as Acinetobacter sp.) MSFKLGKRSLSNLEGVHPDLIKVVKRAIELTECDFTVTEGLRSKERQAQLLKEKKTTTSNSRHLTGHAVDLAAWVNNTVSWDWKYYYQIADAMKKAASELNVSIDWGGDWKKFKDGPHFELTWSKYPIKGAS", "FICI, Aztreonam": 0.188}

Query: Please report the recorded FICI, Aztreonam for GN108: Native lysin, GenBank YP_009288673.1, SEQ ID NO: 26 (protein, Acinetobacter phage phiAB6) MILTKDGFSIIRNELFEGKLDQTQVDAINFIVEKATEYGLTYPEAAYLLATIYHETGLPSGYRTMQPIKEAGSDSYLRSKKYYPYIGYGYVQLTWEENYERIGKLIGIDLVKNPEKALEPLIAIQIAIKGMLNGWFTGVGFRRKRPVSKYNKQQYVAARNIINGKDKAELIAKYAIIFERALRSL .
Response: 0.250
